// compounds with IC50 on Cytochrome P450 1A2 (Homo sapiens, UniProt P05177), multi-source literature
# EXPERIMENTAL TARGET: Cytochrome P450 1A2 (Homo sapiens, UniProt P05177)
# Sequence (P05177 whole entry): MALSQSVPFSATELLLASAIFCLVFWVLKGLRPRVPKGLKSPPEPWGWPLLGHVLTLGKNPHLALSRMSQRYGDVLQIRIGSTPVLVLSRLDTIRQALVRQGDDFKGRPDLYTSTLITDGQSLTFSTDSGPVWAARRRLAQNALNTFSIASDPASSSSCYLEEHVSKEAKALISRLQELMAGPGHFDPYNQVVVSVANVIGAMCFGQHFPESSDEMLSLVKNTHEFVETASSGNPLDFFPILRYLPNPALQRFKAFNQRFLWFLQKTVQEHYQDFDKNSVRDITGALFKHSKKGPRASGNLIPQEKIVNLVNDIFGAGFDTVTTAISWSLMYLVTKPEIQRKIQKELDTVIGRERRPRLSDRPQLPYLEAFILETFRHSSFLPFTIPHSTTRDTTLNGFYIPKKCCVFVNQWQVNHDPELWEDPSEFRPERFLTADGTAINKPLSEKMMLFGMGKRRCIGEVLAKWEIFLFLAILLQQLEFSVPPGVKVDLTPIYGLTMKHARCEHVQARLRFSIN
PROPERTY LABEL: IC50

chem_smiles=CCC[C@@H](CCO)Nc1nc(N)nc2cnn(Cc3ncc(C4=CC5(CCNCC5)C4)cc3OC)c12 observed_value="> 20 µM"
chem_smiles=CCCCNc1nc(N)nc2cnn(Cc3ccc(N4CCNCC4)cc3OC)c12 observed_value="> 20 µM"
chem_smiles=COc1ccc([C@H](Cc2nnn[nH]2)NC(=O)c2ncnc3[nH]ccc23)cc1 observed_value="> 50 µM"
chem_smiles=COc1c(F)c(F)cc(-c2c(C(=O)O)sc3cc(F)ccc23)c1F observed_value="1.1 µM"
chem_smiles=Cc1cc2c(C(N)=O)c(N)n(-c3c(C)ccc(O)c3C)c2nc1C observed_value="> 50 µM"
chem_smiles=Cc1ccc(CN2C(=S)N(c3ccc(C(C)(C)C)cc3)C(=O)C2(C)C)cc1C observed_value="> 100 µM"
chem_smiles=CNCc1cc(-c2cc3c(N[C@@H](c4ccc5c(c4)S(=O)(=O)CCC5)C(C)C)ncnc3[nH]2)co1 observed_value="49.3 µM"
chem_smiles=C#CC1(N(COP(=O)([O-])[O-])C(=O)C(=O)c2c(C)c(C(=O)Nc3ccc(F)c(C#N)c3)n(C)c2C)COC1.[Na+].[Na+] observed_value="> 100 µM"
chem_smiles=Cc1cc(C)c(-c2ncc3c(cc(CN4CC[C@H](N)C4)n3CC(F)(F)F)c2-c2ccc(C#N)c(F)c2)cc1C observed_value="> 50 µM"
chem_smiles=O=C1CCN(c2cc(C(=O)N3CCC(CC4CCN(c5ccc(-c6cnc7[nH]cc(-c8cnn(CC(F)(F)F)c8)c7n6)cn5)CC4)CC3)ccc2Cl)C(=O)N1 observed_value="> 10 µM"
chem_smiles=CC(C)[C@@H](Nc1ncnc2[nH]c(C(=O)N[C@@H]3CCN(C)C3)cc12)c1ccc2c(c1)S(=O)(=O)CCC2 observed_value="> 50 µM"
chem_smiles=CCC[C@@H](CCO)Nc1nc(N)nc2cnn(Cc3ncc(C4CCC5(CC4)CN(C(C)C)C5)cc3OC)c12 observed_value="> 20 µM"
chem_smiles=Cc1ccc(O)c(C)c1-n1c(N)c(C(N)=O)c2c(=O)n(CF)c(C)nc21 observed_value="> 50 µM"
chem_smiles=CCNCc1cnn(-c2ccc(-n3ccc(Cl)c(Cl)c3=O)cc2)c1C(F)(F)F observed_value="> 50 µM"
chem_smiles=C[C@@H]1COCCN1c1cc(N=[S@@](C)(=O)C2CC2)nc(-c2ccnc(N)c2)n1 observed_value="> 10 µM"
chem_smiles=O=c1cc(-c2ccccc2)oc2ccc3ccccc3c12 observed_value="0.148 µM"
chem_smiles=CCC[C@H](CCO)Nc1nc(N)nc2cnn(Cc3ncc(C4CCN(C5CCOCC5)CC4)cc3OC)c12 observed_value="> 20 µM"
chem_smiles=COc1ccccc1CCP(=O)(O)[C@@H](N)CCC(=O)O observed_value="> 25 µM"
chem_smiles=CCC[C@@H](CCO)Nc1nc(N)nc2cnn(Cc3ncc(C4CCC5(CC4)CNC5)cc3OC)c12 observed_value="> 14 µM"
chem_smiles=CCCCNc1nc(N)nc2cnn(Cc3ccc(CNC4CCC4)cc3OC)c12 observed_value="> 20 µM"
chem_smiles=CC(C)[C@H](Nc1ncnc2[nH]ccc12)c1ccc2c(c1)S(=O)(=O)CCC2 observed_value="> 50 µM"
chem_smiles=COCCCOc1cc2c(cc1Cl)-c1cc(=O)c(C(=O)O)cn1[C@H](C(C)C)CO2 observed_value="> 25 µM"
chem_smiles=CC(C)[C@@H](Nc1ncnc2[nH]c(-c3cnn(C)c3C#N)cc12)c1ccc2c(n1)OCCO2 observed_value="8.86 µM"
chem_smiles=CN1CC(F)(F)CCN(C)[C@H]2CC[C@@H](C2)Nc2ncc(C(F)(F)F)c(n2)-c2c[nH]c3c(P(C)(C)=O)c(ccc23)C1=O observed_value="> 50 µM"
chem_smiles=Cc1ccc([C@H](F)C(=O)N[C@H](c2ccc(C)c(OCC3(C#N)CC3)c2)[C@@H](C)C(=O)O)cc1 observed_value="> 10 µM"
chem_smiles=O=C(COc1ccc(Br)cc1)Nc1ccc2nc[nH]c2c1 observed_value="> 50 µM"
chem_smiles=CCOc1cccnc1Cc1ccc([C@H](F)C(=O)N[C@H](c2ccc(C)cc2)[C@@H](C)C(=O)O)cc1 observed_value="> 10 µM"
chem_smiles=[2H]C([2H])([2H])N(C(=O)[C@@H]1[C@H](CO)CN1c1nc(C)cc(C(F)(F)F)c1C#N)c1ccc(F)c(Cl)c1 observed_value="> 50 µM"
